Test system: human monocyte-derived immature dendritic cells
run.description: LID (lipid-peptide-DNA) transfection of immature dendritic cells, EGFP by FACS and 7AAD cell death
Format: cell-based
details: day 4 cells, lipofectin, lipid:DNA 0.75:1, peptide:DNA 7:1 (FIG. 5a)
assay.endpoint: Transfection efficiency, % positive cells

Task item: Fill in the blank: the reported Transfection efficiency, % positive cells of APSNSTA (Synthetic peptide binding to dendritic cells) is ____.
Reply: 11%

Task item: Fill in the blank: the reported Transfection efficiency, % positive cells of FPRAPHH (Synthetic peptide binding to dendritic cells) is ____.
Reply: 11%

Task item: Fill in the blank: the reported Transfection efficiency, % positive cells of SHVKLNS (Synthetic peptide binding to dendritic cells) is ____.
Reply: 17%

Task item: Fill in the blank: the reported Transfection efficiency, % positive cells of RRETAWA [peptide 6, reference compound] is ____.
Reply: 2%

---

run.description: Titration of phage clone binding to blocked plastic (control)
assay.endpoint: Phage titre (pfu), plastic (pfu ×10^3)
All answers are understood in pfu ×10^3, so give the number only.

Task item: Fill in the blank: the reported Phage titre (pfu), plastic of SHVKLNS (Synthetic peptide binding to dendritic cells) is ____.
Reply: 720

Task item: Fill in the blank: the reported Phage titre (pfu), plastic of DWWHTSA (Synthetic peptide binding to dendritic cells) is ____.
Reply: 1180

Task item: Fill in the blank: the reported Phage titre (pfu), plastic of PMLPSLS (Synthetic peptide binding to dendritic cells) is ____.
Reply: 80

Task item: Fill in the blank: the reported Phage titre (pfu), plastic of FPRAPHH (Synthetic peptide binding to dendritic cells) is ____.
Reply: 1860

Task item: Fill in the blank: the reported Phage titre (pfu), plastic of SPALKTV (Synthetic peptide binding to dendritic cells) is ____.
Reply: 220

Task item: Fill in the blank: the reported Phage titre (pfu), plastic of FQSQYQK (Synthetic peptide binding to dendritic cells) is ____.
Reply: 1680

Task item: Fill in the blank: the reported Phage titre (pfu), plastic of APSNSTA (Synthetic peptide binding to dendritic cells) is ____.
Reply: 480

Task item: Fill in the blank: the reported Phage titre (pfu), plastic of MASISMK (Synthetic peptide binding to dendritic cells) is ____.
Reply: 2380

Task item: Fill in the blank: the reported Phage titre (pfu), plastic of QLLTGAS (Synthetic peptide binding to dendritic cells) is ____.
Reply: 220
